Form field: MFI (one value per entry).
# target_entity: T1, cynomolgus BLyS (full length, arginine to histidine at position 132) on CHO-K1 cells (cynomolgus, UniProt Q9Y275 1-285 (human entry))
# T1 construct: also called cyno BLyS; CHO-K1 cynoBLyS
# T1 chain: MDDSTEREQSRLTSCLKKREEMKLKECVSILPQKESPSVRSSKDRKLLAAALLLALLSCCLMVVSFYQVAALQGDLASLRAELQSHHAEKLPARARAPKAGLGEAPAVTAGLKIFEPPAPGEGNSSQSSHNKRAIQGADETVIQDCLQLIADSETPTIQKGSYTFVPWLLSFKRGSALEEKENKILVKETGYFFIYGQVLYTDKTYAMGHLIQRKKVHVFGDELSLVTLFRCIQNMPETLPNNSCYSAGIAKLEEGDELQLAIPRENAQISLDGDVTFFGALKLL
# assay_method_text: flow cytometry, CHO-K1 cynoBLyS cells, antibody 0.107 nM
value_kind: MFI (MFI)

>>> experimental_result("2-1G11 (antibody, V domains shown, From a human naive scFv phage library; also called human BLyS antibody 2-1G11) VH: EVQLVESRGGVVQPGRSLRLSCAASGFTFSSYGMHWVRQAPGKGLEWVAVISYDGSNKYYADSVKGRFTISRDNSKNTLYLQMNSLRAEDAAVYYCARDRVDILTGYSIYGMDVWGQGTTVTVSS VL: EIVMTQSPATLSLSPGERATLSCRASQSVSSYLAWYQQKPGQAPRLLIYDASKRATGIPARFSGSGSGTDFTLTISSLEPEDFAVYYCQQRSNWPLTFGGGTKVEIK")
816
>>> experimental_result("35E6F7C3 (antibody, V domains shown, Mouse hybridoma monoclonal antibody purified on Protein G) VH: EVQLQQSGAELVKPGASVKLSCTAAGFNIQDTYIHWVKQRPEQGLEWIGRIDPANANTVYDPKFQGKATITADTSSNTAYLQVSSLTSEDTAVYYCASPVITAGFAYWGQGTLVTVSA VL: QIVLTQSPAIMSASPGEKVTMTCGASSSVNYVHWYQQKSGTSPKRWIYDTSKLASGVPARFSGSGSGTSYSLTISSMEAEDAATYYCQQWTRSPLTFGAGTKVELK")
177
>>> experimental_result("93C6F10D3 (antibody, V domains shown, Mouse hybridoma monoclonal antibody purified on Protein G) VH: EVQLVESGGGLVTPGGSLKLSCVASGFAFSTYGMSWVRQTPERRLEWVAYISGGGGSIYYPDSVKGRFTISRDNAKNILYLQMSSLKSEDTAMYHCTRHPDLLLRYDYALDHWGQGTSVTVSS VL: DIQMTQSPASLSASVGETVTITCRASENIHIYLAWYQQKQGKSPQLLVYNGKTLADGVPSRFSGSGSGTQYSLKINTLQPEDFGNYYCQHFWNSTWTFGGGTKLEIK")
308
>>> experimental_result("89A2G5E7 (antibody, V domains shown, Mouse hybridoma monoclonal antibody purified on Protein G) VH: QVQLKESGPGLVAPSQSLSITCTVSGLSLNSHDISWIRQPPGKGLEWLGVIWSGGGTKYNSAFMSRLSISKDNSKSQVFLKMNSLHTDDTAIYYCVRTPSMITYSAMDYWGQGTSVTVSS VL: EIVLTQSPALMAASPGEKVTITCSVSSSISSRNLHWYQQKSQTSPKAWIHATSNLASGVPVRFSGSGSGTSYSLTISSMEAEDAATYYCQQWSSYPLTFGSGTKLEIK")
125
>>> experimental_result("111D10D6G3 (antibody, V domains shown, Mouse hybridoma monoclonal antibody purified on Protein G) VH: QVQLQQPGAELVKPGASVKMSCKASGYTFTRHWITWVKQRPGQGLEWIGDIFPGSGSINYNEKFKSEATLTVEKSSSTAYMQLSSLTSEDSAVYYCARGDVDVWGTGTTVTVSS VL: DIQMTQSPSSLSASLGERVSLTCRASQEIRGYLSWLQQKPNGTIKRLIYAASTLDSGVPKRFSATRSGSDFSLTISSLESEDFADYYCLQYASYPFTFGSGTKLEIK")
222
>>> experimental_result("97E7B3F2 (antibody, V domains shown, Mouse hybridoma monoclonal antibody purified on Protein G) VH: EVQLQQSGPELVKSGASVKISCKASGYTFTDHKMHWVKQSHGKSLEWIGYISPYNGGTGYNQKFKSKVTLTVDISSSTAYMELRSLTSEDSAVYYCARWGFYDVMDSWGQGTSVTVSS VL: DVLLTQTPLSLPVSLGDQASISCRSSQTIVHIIGDTYLEWYLQKPGQSPKLLIYKVSNRFSGVPDRFSGSGAGTDFTLKISRVEAEDLGVYYCFQGSHVPRTFGGGTKLEIK")
288
>>> experimental_result("8E7D9C7F5 (antibody, V domains shown, Mouse hybridoma monoclonal antibody purified on Protein G) VH: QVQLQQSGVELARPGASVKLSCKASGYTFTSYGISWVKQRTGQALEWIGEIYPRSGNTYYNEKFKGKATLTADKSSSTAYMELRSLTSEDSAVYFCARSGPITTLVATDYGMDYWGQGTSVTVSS VL: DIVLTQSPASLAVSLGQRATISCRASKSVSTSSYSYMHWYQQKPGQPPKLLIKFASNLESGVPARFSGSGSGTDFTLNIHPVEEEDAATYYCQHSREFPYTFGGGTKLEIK")
477
>>> experimental_result("78C11D2D12 (antibody, V domains shown, Mouse hybridoma monoclonal antibody purified on Protein G) VH: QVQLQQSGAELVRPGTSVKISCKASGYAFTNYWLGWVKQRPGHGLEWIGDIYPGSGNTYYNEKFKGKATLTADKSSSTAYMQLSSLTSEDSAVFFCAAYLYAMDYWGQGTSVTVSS VL: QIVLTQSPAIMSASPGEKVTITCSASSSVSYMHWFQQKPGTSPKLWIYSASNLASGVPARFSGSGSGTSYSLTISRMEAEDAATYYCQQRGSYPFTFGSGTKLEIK")
235
>>> experimental_result("97A3C2H4 (antibody, V domains shown, Mouse hybridoma monoclonal antibody purified on Protein G) VH: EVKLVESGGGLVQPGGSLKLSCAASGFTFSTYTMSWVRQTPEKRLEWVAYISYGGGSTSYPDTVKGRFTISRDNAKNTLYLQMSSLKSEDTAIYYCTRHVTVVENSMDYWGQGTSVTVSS VL: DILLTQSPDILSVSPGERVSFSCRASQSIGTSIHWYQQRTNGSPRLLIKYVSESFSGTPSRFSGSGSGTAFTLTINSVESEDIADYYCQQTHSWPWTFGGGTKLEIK")
243
>>> experimental_result("L1D12 (antibody, V domains shown, From a human naive scFv phage library; also called human BLyS antibody L1D12; LID12) VH: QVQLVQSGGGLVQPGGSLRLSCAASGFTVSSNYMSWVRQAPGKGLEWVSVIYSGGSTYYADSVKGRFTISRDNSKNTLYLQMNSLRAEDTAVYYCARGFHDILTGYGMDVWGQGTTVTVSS VL: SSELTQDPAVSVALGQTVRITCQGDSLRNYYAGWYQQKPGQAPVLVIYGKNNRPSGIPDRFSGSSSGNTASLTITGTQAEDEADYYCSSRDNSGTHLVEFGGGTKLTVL")
364
